system: NCI-H1436; assay: CellTiter-Glo proliferation and viability assay; assay type: cell-based; conditions: Homo sapiens, read-out: Abs IC50
measurementType: pIC50
# pIC50 = -log10(concentration in molar units)

Query block: Look up pIC50: CNc1ncc2cc(-c3cc(NC(=O)NCCC(C)(C)C)c(F)cc3C)c(C)nc2n1 [Example 1]
Result block: 8.08

====

tested on: NCI-H2009; assay: CellTiter-Glo proliferation and viability assay; assay type: cell-based; settings: Homo sapiens, read-out: Abs IC50
measurementType: IC50 (nM)
Report the figure in nM without appending any unit label.

Query block: Report IC50 for CNc1ncc2cc(-c3cc(NC(=O)NCCC(C)(C)C)c(F)cc3C)c(C)nc2n1 [Example 1] please.
Result block: 11.9
